test: qHTS Assay for NPC1 Promoter Activators: Hit Validation Using Renila Luciferase Read-Out for NPC1; conditions: Huh7 NPC1 promoter-luciferase reporter, luminescence, 24 h; series mostly up to 76.9 µM
Results filed as inconclusive are left out. Activity calls are given as the source filed them. Calls come from the whole dose curve; as a rule, active = well fitted activation curve with a large enough effect; inconclusive = small, poorly fitted or top-dose-only effect; inactive = no such curve, though single readings can be large or run the other way.
Outcome codes: active, inactive

- Molecule: "Cc1cccc(N2CCN(C(=S)c3ccccc3)CC2)c1"
  Assigned Label: "inactive"
- Molecule: "CCc1cc(C(=O)Nc2ccccc2)cs1"
  Assigned Label: "inactive"
- Molecule: "O=C(CN1C(=O)COc2ccc(Cl)cc21)NCC1CCCO1 (stereo unspecified)"
  Assigned Label: "inactive"
- Molecule: "CC1CCCN(S(=O)(=O)c2ccc(C(=O)Nc3nnc(-c4ccncc4)o3)cc2)C1 (stereo unspecified)"
  Assigned Label: "inactive"
- Molecule: "COc1ccc(OC)c(S(=O)(=O)N2CCN3CCCC3C2)c1 (stereo unspecified)"
  Assigned Label: "active"
- Molecule: "COc1ccc(-n2cc(-c3ccc(Cl)cc3)[nH]c2=S)cc1"
  Assigned Label: "inactive"
- Molecule: "CCOC(=O)c1cc2sccc2n1CC(=O)N1CCCc2ccccc21"
  Assigned Label: "inactive"
- Molecule: "O=C(O)CSc1nnc(-c2ccncc2)n1CCc1ccccc1"
  Assigned Label: "inactive"
- Molecule: "CCOc1ccc(CNC(=O)C2CCCN(S(C)(=O)=O)C2)cc1OC (stereo unspecified)"
  Assigned Label: "inactive"
- Molecule: "Cc1csc(NC(=O)CSc2nnc(-c3ccncc3)o2)n1"
  Assigned Label: "inactive"
- Molecule: "Cc1ccccc1NC(=O)Cc1nc(COC(=O)CC(C)c2ccccc2)cs1 (stereo unspecified)"
  Assigned Label: "inactive"

Just for reference, PubChem BioAssay AID720526 is where these values come from.
